- ASSAYED TARGET: catalytic domain (Met80-Gly242) of human neutrophil collagenase (Homo sapiens)
- Assay type: biochemical
- CONDITION DESCRIPTION: towards HNC; 8 nM enzyme, 10 µM DNP-Pro-Leu-Gly-Leu-Trp-Ala-D-Arg-NH2, 50 mM Tris/HCl pH 7.6, 25°C
ENDPOINT: pIC50
Field pIC50 (float): negative decimal logarithm of the concentration in molar.

Q: So what does the record say about pIC50 for CC(C)CC(C(=O)NO)C(=O)NCCCc1ccccc1 (racemic) [Example 1, (±)-HONH-Mal(iBu)-NH-(CH2)3-C6H5] ?
A: 6.21

---

- ASSAYED TARGET: catalytic domain (Met80-Gly242) of human neutrophil collagenase (Homo sapiens, UniProt P22894)
- Sequence (P22894 100-262): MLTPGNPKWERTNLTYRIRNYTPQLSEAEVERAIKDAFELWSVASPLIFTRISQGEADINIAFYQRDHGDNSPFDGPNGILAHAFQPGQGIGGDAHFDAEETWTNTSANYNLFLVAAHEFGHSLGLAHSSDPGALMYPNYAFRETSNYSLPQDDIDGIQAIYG
- Format: biochemical
- CONDITION DESCRIPTION: towards HNC; 8 nM enzyme, 10 µM DNP-Pro-Leu-Gly-Leu-Trp-Ala-D-Arg-NH2, 50 mM Tris/HCl pH 7.6, 25°C; read-out: IC50
Catalogue of pIC50 readings, one per entry.
Field pIC50 (float): negative decimal logarithm of the concentration in molar.

Would you please look over these solved cases?
> print(dat)
                                   molecule  endpoint  value
1  O=C(NO)C(Cc1ccccc1)C(=O)NCCCc1ccccc1 (racemic) [Example 4, (±)-HONH-Mal(Bn)-NH-(CH2)3-C6H5]     pIC50   6.19
2  O=C(NO)C(CCc1ccccc1)C(=O)NCCCc1ccccc1 (racemic) [Example 3, (±)-HONH-Mal(CH2CH2-C6H5)-NH-(CH2)3-C6H5]     pIC50   6.25

// below: pIC50 requested for another molecule
Q: So what does the record say about pIC50 for CCCCCCCCNC(=O)C(CC(C)C)C(=O)NO (racemic) [Example 2, (±)-HONH-Mal(iBu)-NH-(CH2)7-CH3] ?
A: 6.52

Cited source for all entries: patent EP0911319A1
